Assayed target: T1, human chemokine (C-C motif) receptor 8 (CCR8) (human, UniProt P51685 1-355)
T1 construct: also called hCCR8
T1 sequence (P51685 whole entry): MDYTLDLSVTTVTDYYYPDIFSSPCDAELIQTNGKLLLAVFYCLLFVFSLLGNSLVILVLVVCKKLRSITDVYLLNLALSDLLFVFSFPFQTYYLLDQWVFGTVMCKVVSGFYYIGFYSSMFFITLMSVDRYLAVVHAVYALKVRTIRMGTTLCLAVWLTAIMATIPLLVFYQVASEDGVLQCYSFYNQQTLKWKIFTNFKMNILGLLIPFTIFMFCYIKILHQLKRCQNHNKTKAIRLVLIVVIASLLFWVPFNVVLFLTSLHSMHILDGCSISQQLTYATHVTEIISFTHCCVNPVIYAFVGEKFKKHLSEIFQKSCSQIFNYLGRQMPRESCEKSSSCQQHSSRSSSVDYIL
Experimental details: flow cytometry blocking, human PBMC, CD3+ gate; % cells stained by competitor PE-AB12 after block
Binary call on % Positive cells with cut-off 0.5%: strictly below means criterion met, and equality or higher means criterion not met.

// known answers, use as guide
Input: API: query returns whether the binder falls strictly under 0.5% in % Positive cells. Query: anti-CCR8 monoclonal antibody AB7 (antibody, V domains shown, Hybridoma monoclonal; also called antibody 7; clone 7) VH: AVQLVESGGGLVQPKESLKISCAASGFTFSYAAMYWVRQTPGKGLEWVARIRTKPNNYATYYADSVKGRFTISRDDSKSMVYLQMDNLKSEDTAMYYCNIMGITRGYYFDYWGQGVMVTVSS VL: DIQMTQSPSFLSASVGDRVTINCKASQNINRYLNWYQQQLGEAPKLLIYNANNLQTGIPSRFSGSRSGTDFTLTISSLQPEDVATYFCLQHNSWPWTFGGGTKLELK
Output: criterion met

Input: Decide: % Positive cells of anti-CCR8 monoclonal antibody AB11 (antibody, V domains shown, Hybridoma monoclonal; also called antibody 11; clone 11) VH: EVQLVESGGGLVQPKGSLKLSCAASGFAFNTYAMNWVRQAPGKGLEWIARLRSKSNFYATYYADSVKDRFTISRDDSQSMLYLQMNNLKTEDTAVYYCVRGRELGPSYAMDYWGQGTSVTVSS VL: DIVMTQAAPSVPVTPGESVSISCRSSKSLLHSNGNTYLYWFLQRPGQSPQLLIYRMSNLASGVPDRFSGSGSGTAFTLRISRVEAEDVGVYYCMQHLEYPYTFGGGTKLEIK strictly below 0.5%?
Output: criterion met

Input: # check: % Positive cells < 0.5% for anti-CCR8 monoclonal antibody AB10 (antibody, V domains shown, Hybridoma monoclonal; also called antibody 10; clone 10) VH: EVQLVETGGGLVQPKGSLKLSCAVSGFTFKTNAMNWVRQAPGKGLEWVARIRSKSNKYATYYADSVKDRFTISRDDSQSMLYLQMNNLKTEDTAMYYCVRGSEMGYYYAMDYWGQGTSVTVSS VL: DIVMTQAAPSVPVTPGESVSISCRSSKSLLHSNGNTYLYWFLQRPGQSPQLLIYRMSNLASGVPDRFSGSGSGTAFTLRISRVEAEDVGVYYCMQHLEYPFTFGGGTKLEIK
Output: criterion met

Input: Here's an entry: anti-CCR8 monoclonal antibody AB13 (antibody, V domains shown, Hybridoma monoclonal; also called antibody 13; clone 13) VH: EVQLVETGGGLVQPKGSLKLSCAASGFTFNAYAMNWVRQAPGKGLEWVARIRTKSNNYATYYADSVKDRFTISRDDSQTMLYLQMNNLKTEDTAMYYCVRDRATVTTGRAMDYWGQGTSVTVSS VL: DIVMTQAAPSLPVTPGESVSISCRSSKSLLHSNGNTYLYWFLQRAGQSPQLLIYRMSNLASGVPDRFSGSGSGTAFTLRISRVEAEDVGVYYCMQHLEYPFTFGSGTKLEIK . Is its % Positive cells below 0.5%?
Output: criterion not met

Input: In plain terms, does anti-CCR8 monoclonal antibody AB5 (antibody, V domains shown, Hybridoma monoclonal; also called antibody 5; clone 5) VH: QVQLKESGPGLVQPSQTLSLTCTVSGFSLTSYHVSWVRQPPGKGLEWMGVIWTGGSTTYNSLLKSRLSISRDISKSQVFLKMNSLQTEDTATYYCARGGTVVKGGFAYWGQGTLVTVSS VL: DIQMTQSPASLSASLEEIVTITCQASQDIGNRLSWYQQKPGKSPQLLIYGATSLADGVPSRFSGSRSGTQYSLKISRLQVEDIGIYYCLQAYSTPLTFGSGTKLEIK come in under 0.5% for % Positive cells?
Output: criterion not met

More entries:
Input: hey, is % Positive cells for anti-CCR8 monoclonal antibody AB8 (antibody, V domains shown, Hybridoma monoclonal; also called antibody 8; clone 8) VH: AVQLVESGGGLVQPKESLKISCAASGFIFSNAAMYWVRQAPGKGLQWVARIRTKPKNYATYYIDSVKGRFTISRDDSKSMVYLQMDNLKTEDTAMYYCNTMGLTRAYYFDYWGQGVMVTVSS VL: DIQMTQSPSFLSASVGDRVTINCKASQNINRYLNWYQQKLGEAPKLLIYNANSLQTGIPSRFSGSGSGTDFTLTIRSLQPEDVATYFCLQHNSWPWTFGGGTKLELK lower than 0.5% or not?
Output: criterion met

Input: API: query returns whether the binder falls strictly under 0.5% in % Positive cells. Query: anti-CCR8 monoclonal antibody AB6 (antibody, V domains shown, also called antibody 6; clone 6) VH: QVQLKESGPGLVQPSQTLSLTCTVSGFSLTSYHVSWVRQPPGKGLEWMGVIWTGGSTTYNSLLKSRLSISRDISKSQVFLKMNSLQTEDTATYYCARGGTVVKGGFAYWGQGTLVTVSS VL: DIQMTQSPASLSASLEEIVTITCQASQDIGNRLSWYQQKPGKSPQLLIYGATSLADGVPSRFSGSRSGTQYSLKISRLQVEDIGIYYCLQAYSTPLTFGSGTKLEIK
Output: criterion not met
